As shown below, each of these compounds has a reported MIC value.
System: Cryptococcus neoformans
Assay: Antifungal activity against Cryptococcus neoformans ATCC MYA422 after 72 hrs at pH 7.5
Format: functional
Conditions: ATCC MYA422, 72 h

COMPOUND	TARGET SYSTEM	MIC
C[C@@H]1[C@H](O)[C@@H](C)/C=C/C=C/C=C/C=C/C=C/C=C/C=C/[C@H](O[C@@H]2O[C@H](C)[C@@H](O)[C@H](N)[C@@H]2O)C[C@@H]2O[C@](O)(C[C@@H](O)C[C@@H](O)[C@H](O)CC[C@@H](O)C[C@@H](O)CC(=O)O[C@H]1C)C[C@H](O)[C@H]2C(=O)O [AMPHOTERICIN B]	Cryptococcus neoformans	0.17 µM
CCCCCCCCCCCCCCCCCC(=O)N[C@@H](Cc1c[nH]cn1)C(=O)N[C@@H](Cc1c[nH]cn1)C(=O)N1CCCN(C(=O)[C@H](Cc2c[nH]cn2)NC(=O)[C@H](Cc2c[nH]cn2)NC(=O)CCCCCCCCCCCCCCCCC)Cc2cc(cc(C(N)=O)c2)CN(C(=O)[C@H](Cc2c[nH]cn2)NC(=O)[C@H](Cc2c[nH]cn2)NC(=O)CCCCCCCCCCCCCCCCC)CCC1	Cryptococcus neoformans	> 100 µM

* * *

Tested on: Aspergillus fumigatus
Assay: Antifungal activity against Aspergillus fumigatus ATCC 26430 after 48 hrs at pH 5.5
Type: functional
Settings: ATCC 26430, 48 h

STRUCTURE SMILES STRING	RELATION SYMBOL	MIC (µM)
CCCCCCCCCCCCCCN[C@@H](Cc1cnc[nH]1)C(=O)N[C@@H](Cc1cnc[nH]1)C(=O)O	=	50
CCCCCCCCCCCCCC(=O)N[C@@H](Cc1c[nH]cn1)C(=O)N[C@@H](Cc1c[nH]cn1)C(=O)N1CCCN(C(=O)[C@H](Cc2c[nH]cn2)NC(=O)[C@H](Cc2c[nH]cn2)NC(=O)CCCCCCCCCCCCC)Cc2cc(cc(C(N)=O)c2)CN(C(=O)[C@H](Cc2c[nH]cn2)NC(=O)[C@H](Cc2c[nH]cn2)NC(=O)CCCCCCCCCCCCC)CCC1	=	3.12
CCCCCCCCCCCCCCCCCC(=O)N[C@@H](Cc1c[nH]cn1)C(=O)N[C@@H](Cc1c[nH]cn1)C(=O)N1CCCN(C(=O)[C@H](Cc2c[nH]cn2)NC(=O)[C@H](Cc2c[nH]cn2)NC(=O)CCCCCCCCCCCCCCCCC)Cc2cc(cc(C(N)=O)c2)CN(C(=O)[C@H](Cc2c[nH]cn2)NC(=O)[C@H](Cc2c[nH]cn2)NC(=O)CCCCCCCCCCCCCCCCC)CCC1	>	100
C[C@@H]1[C@H](O)[C@@H](C)/C=C/C=C/C=C/C=C/C=C/C=C/C=C/[C@H](O[C@@H]2O[C@H](C)[C@@H](O)[C@H](N)[C@@H]2O)C[C@@H]2O[C@](O)(C[C@@H](O)C[C@@H](O)[C@H](O)CC[C@@H](O)C[C@@H](O)CC(=O)O[C@H]1C)C[C@H](O)[C@H]2C(=O)O	=	1
CCCCCC(=O)N[C@@H](Cc1cnc[nH]1)C(=O)N[C@@H](Cc1cnc[nH]1)C(=O)N1CCCN(C(=O)[C@H](Cc2cnc[nH]2)NC(=O)[C@H](Cc2cnc[nH]2)NC(=O)CCCCC)Cc2cc(cc(C(N)=O)c2)CN(C(=O)[C@H](Cc2cnc[nH]2)NC(=O)[C@H](Cc2cnc[nH]2)NC(=O)CCCCC)CCC1	>	100

* * *

System: Cryptococcus neoformans
Test: Antifungal activity against Cryptococcus neoformans ATCC MYA422 after 72 hrs at pH 7.5
Type: functional
Conditions: ATCC MYA422, 72 h
As shown below, each of these compounds has a reported MIC value.

STRUCTURE SMILES STRING	MIC
CCCCCC(=O)N[C@@H](Cc1cnc[nH]1)C(=O)N[C@@H](Cc1cnc[nH]1)C(=O)N1CCCN(C(=O)[C@H](Cc2cnc[nH]2)NC(=O)[C@H](Cc2cnc[nH]2)NC(=O)CCCCC)Cc2cc(cc(C(N)=O)c2)CN(C(=O)[C@H](Cc2cnc[nH]2)NC(=O)[C@H](Cc2cnc[nH]2)NC(=O)CCCCC)CCC1	> 100 µM
CCCCCCCCCCCCCCN[C@@H](Cc1cnc[nH]1)C(=O)N[C@@H](Cc1cnc[nH]1)C(=O)O	> 100 µM
CCCCCCCCCCCCCC(=O)N[C@@H](Cc1c[nH]cn1)C(=O)N[C@@H](Cc1c[nH]cn1)C(=O)N1CCCN(C(=O)[C@H](Cc2c[nH]cn2)NC(=O)[C@H](Cc2c[nH]cn2)NC(=O)CCCCCCCCCCCCC)Cc2cc(cc(C(N)=O)c2)CN(C(=O)[C@H](Cc2c[nH]cn2)NC(=O)[C@H](Cc2c[nH]cn2)NC(=O)CCCCCCCCCCCCC)CCC1	> 100 µM
